# maps each entry to its activity coefficient
assay: activity coefficient (dimensionless); of the first substance listed, at infinite dilution; xn = mol fraction of the nth substance listed; settings: 270.12 K; Liquid; Chromatography; x1 = 0
MEASURED METRIC: activity coefficient

[[record]]
compound = "C=C(C)C [2-methylpropene] + C1CCOCC1"
meas_value = 1.39

[[record]]
compound = "CCCC [butane] + C1CCOCC1"
meas_value = 1.94

[[record]]
compound = "CC(C)C [2-methylpropane] + C1CCOCC1"
meas_value = 2.04

[[record]]
compound = "C=CC [propene] + C1CCOCC1"
meas_value = 1.42

[[record]]
compound = "CCC [propane] + C1CCOCC1"
meas_value = 1.98

[[record]]
compound = "C=CC=C [1,3-butadiene] + C1CCOCC1"
meas_value = 0.97

[[record]]
compound = "C/C=C/C [(E)-2-butene] + C1CCOCC1"
meas_value = 1.41

[[record]]
compound = "CC(F)F [1,1-difluoroethane] + C1CCOCC1"
meas_value = 1.64

